# Tested on: RARa homodimer (NR concentration 270 nM)
# ASSAY NOTES: PBM binding z-score (relative to random genomic background probes); higher = stronger binding; sequences stand for … in GC…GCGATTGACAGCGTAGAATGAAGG
Classification by PBM binding z-score | ranges: low group (below -0.007), middle group (-0.007 to below 0.6), high group (0.6 or more)

(Q) Bin this entry: AGAACGAGAGCAATGAGTTGATAGCACGGGTGGC
(A) low group

(Q) Any idea which band CGTCCAAGGTCAAGGTCAGTAAAAGAGACTCGAA is in?
(A) high group

(Q) Class? Entry: TCATATAGGTAACTGCTAGGTGAAAGTCCGATCT
(A) high group

(Q) Hi there! Could you help me figure out the category for TCTCGGAGGACGCGAAAGGTCAGAGCTCGACATC please?
(A) high group

(Q) Looking at TTGCCTAGGTCATTCAGGGGCCAGTATAGAAAGC , which class would you pick?
(A) low group

(Q) Quick check: band for CCTACTGGGCCATCAGTTCATTGATATCAACGTT
(A) middle group

(Q) In plain terms, what class is GATTGTAGATCAAGGTTAAGAAAGACTAAGCTAA ?
(A) low group

(Q) Consider AGAATGAGGTTATACGTAGATCAGGTAAGAAAGT . To which PBM binding z-score class does it belong?
(A) middle group

(Q) Lab note: sort TAGCCAAGGTCATGCGGGCCAGTATAGTGTCGGC into the matching PBM binding z-score band.
(A) middle group

(Q) Lab note: which band did TCATATAGGTATAAGGTGAAAGTCGGTGTGGTAA land in?
(A) high group

(Q) Band for the recorded PBM binding z-score of ACAGACAGGTGAGAGAAGGTAACTCAGCTGGACG ?
(A) low group

----------
# Test system: PPARg:RXRa 90nM:30nM, anti-RXR (NR concentration 90 nM, RXRa partner concentration 30 nM)
# ASSAY NOTES: PBM binding z-score (relative to random genomic background probes); higher = stronger binding; sequences stand for … in GC…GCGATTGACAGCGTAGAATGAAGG
Binary classification by PBM binding z-score, with 1 as an inclusive lower bound for yes; all other cases are no.

(Q) Determine whether this sequence has PBM binding z-score no lower than 1: TAGCCTAGGTCATGCGGGCCAGTGTAGTGTCGGC
(A) yes

(Q) Could you verify whether the entry ACTAGCAGGCCACGTTTGGGTCACTCAAACAAAG shows PBM binding z-score of no less than 1?
(A) no

(Q) Can TCGAGTAGGTTAGGGGCAATCAGAATGGCGTCGA be said to have PBM binding z-score at or above 1?
(A) yes

(Q) Is reported PBM binding z-score greater than or equal to 1 here: ACAGACAGGTGAGTGAAGGTTACTCAGCTGGACG
(A) no

(Q) I'd appreciate it if you could say whether CGTCCAAGGTCAAAGGTCAGTGAAGAGATGACGG has PBM binding z-score at least equal to 1.
(A) yes

(Q) Given ATATGTAGGTTAGTTGGGGTCATTCAGACTAGGC , state whether its PBM binding z-score is at least 1.
(A) yes

(Q) hey, is PBM binding z-score for this one >= 1? CATACAGGGTCAGGTAGGCCAGAGTAGGGACGGC
(A) yes

(Q) I'd appreciate it if you could say whether GAAACAGGGTCAAGGCCAGAGTACGCGTATTGAT has PBM binding z-score at least equal to 1.
(A) yes

(Q) Hello, I need to know if CGTACTGGGCCAAGGTCATTGATCAGTCAAAGCA has measured PBM binding z-score not below 1. Thanks!
(A) yes

(Q) Please indicate if the recorded PBM binding z-score for TCGAGTAGCTTAGGGGCATTCAGAATGGCGTCGA meets or exceeds 1.
(A) no

(Q) Please check the record TCAGACAGGTTAAGGTAACTCAGGTACGCAGTCG and state if its PBM binding z-score is at or above 1.
(A) yes

(Q) Assess whether reported PBM binding z-score for ATCGAAAGGTCGTGAGGTGAGTAAACAGAAAGGC sits at 1 or higher.
(A) yes

(Q) Entry ATATGTAGGTTAGCTGGGGTCAGTCAGACTAGGC : is its PBM binding z-score no less than 1?
(A) yes

(Q) Would you say TGAATGTGGTTAAAGATCAGGGAACGTGGCGTCG shows PBM binding z-score at minimum 1?
(A) yes

(Q) Is PBM binding z-score for TCTAGCAGGCCAGAGGGTCAATCAAGAGGTACGG at or above 1?
(A) yes

(Q) Does the sequence ATGGAAAGGTCGACGAGGTGAGTATACACCGTTT have recorded PBM binding z-score that is 1 or more?
(A) yes

(Q) State whether the measured PBM binding z-score reaches 1, counting equality as reaching it, for TCTAGTTGGTCACGGCGGTCACACACGACGGGTA
(A) yes

(Q) Is PBM binding z-score for CTACCAAGGTGATCAAGGTCGTTGATTACTATTC at or above 1?
(A) no

(Q) Hello, I need to know if ATACCAATGTGATCGTGAGGTCGTTGATACTAAC has measured PBM binding z-score not below 1. Thanks!
(A) no

(Q) Threshold query (PBM binding z-score >= 1) on CCAGACATGTGAGAAGGTAACTCAGCCTCGATTA
(A) no

(Q) Does the sequence ACTAGCAGGCCAAGTTTGGGTCTCTCAAACAAAG have recorded PBM binding z-score that is 1 or more?
(A) no

(Q) I'd appreciate it if you could say whether TCATATAGGTAAATGCTAGGTGCAAGTCCGATCT has PBM binding z-score at least equal to 1.
(A) yes

(Q) Hi, just wondering whether TCAGACAGGTGAAGGTAACTCAGGTACGCAGTCG shows PBM binding z-score of 1 or higher.
(A) yes

(Q) Would you say TCTTGTAGATCAAAGGTTAAGAAAGCCGAAGCCT shows PBM binding z-score at minimum 1?
(A) yes

(Q) I'd appreciate it if you could say whether TCGAGTAGGCTAGTCGGGGCATTCAGCCAACATA has PBM binding z-score at least equal to 1.
(A) no

(Q) Hi, just wondering whether GCTAGCAGGCCATTTGGGTCACACAATGACGGGC shows PBM binding z-score of 1 or higher.
(A) no

(Q) Entry TCGCCTAGGTCATTGGGCCAGTATAGTACGCATC : is its PBM binding z-score no less than 1?
(A) yes

(Q) Given the entry TGAATGAGGTTACAAGATCAGGGAACGTTGCAAA , answer whether its PBM binding z-score meets or surpasses 1.
(A) yes

(Q) Record CCAGACAGGGGAGAAGGTAACTCAGCCTCGATTA ; criterion: PBM binding z-score no lower than 1. Met?
(A) no

(Q) State whether the measured PBM binding z-score reaches 1, counting equality as reaching it, for TCCCGGAGGACACGAAGGTCAGAGCTTTCCAGAG
(A) yes

(Q) Given CCTGCTAGGTCAATGGTCAGTTAAAGCAGCTCGC , state whether its PBM binding z-score is at least 1.
(A) yes

(Q) For this sequence, is measured PBM binding z-score 1 or higher? ACTAGCAGGCCAAGTTTGTGTCACTCAAACAAAG
(A) no

(Q) Say whether ATCTCTAGGTAACCAAGATCAGTGAATGCCGAAC shows PBM binding z-score of 1 or more.
(A) no

(Q) Is it the case that TCGAGTAGGTTACCAATGGGGCCTTCAGCTTTCT has PBM binding z-score reaching or exceeding 1?
(A) no

(Q) Is PBM binding z-score for ACAGACAGGTAATGAAGGTAACTCAGGCTATCAT at or above 1?
(A) no

(Q) Decide: PBM binding z-score of GTACCAAGGTGAATAGGTCGTAGATGAGTAGGCG >= 1?
(A) yes

(Q) Determine whether this sequence has PBM binding z-score no lower than 1: CCTACTGGGCCAGCAGGTCATTGATATCAACGTT
(A) yes

(Q) Test whether the sequence GCAGACAGGTGAAACGCAGGTAACTCCGGGTGGC records PBM binding z-score of 1 or higher.
(A) no

(Q) Hi, just wondering whether CATACAGGGTCAGCTGGGCCAGAGTAGGGACGGC shows PBM binding z-score of 1 or higher.
(A) yes

(Q) For this sequence, is measured PBM binding z-score 1 or higher? CAAACTAGGTCAAGGTGAAAGTCGGTTTGTGCCA
(A) yes

(Q) Check if PBM binding z-score >= 1 (inclusive). Item: CGTCCAAGGGCAAGGTCAGTGAAAGAGACTCGAA
(A) no

(Q) Textbook exercise: given the entry TTACCAAGCTGAGCTGAGGTCGTTGATCCAACTC , state whether its PBM binding z-score is greater than or equal to 1.
(A) no

(Q) Form field: PBM binding z-score at least 1? Entry: TCATATAGGTAAAGGTGAATGTCGAACGATATGA
(A) yes

(Q) Reported PBM binding z-score reaches at least 1 for AGTCAAAGTTCAACTAGGTAACGTAAGATATGCT ?
(A) yes

(Q) Determine whether this sequence has PBM binding z-score no lower than 1: ATATATAGGTTACATCCGGGTCATTCAGGCTATG
(A) yes

(Q) API: above_or_equal(metric=PBM binding z-score, cutoff=1) for item ACAGATAGGTGATGAAGGTAACTCAGGCTATCAT
(A) no

(Q) Quick check, PBM binding z-score >= 1? TCTTGTAGGTCAACAGGAGGTTAAGAAAGATCGA
(A) yes

(Q) Is PBM binding z-score for TCTCGGAGGATACGAAAGGTCAGAGCTCGACATC at or above 1?
(A) yes

(Q) Please check the record GATACAGGGTCAAGGCCAAAGTACGCGTATTGAT and state if its PBM binding z-score is at or above 1.
(A) yes

(Q) Could you verify whether the entry CCTATTAGTTGACCATAATGGCAACCGAAGCTCG shows PBM binding z-score of no less than 1?
(A) no

(Q) Is PBM binding z-score for CCTAGCAGGCCAGGGTGACTCAAGCATTTCGCTT at or above 1?
(A) no
